Source of measurements: the supplement of paper PMC8967900

tested on: MOLT-14; assay: selective drug sensitivity score (sDSS, relative to normal bone marrow) (sDSS (score)); higher = more potent and effective on the cell line relative to normal bone marrow cells; details: 72 h;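 note: ALL cell lines in 384-well plates, five doses spanning 10,000-fold, each plate scaled between vehicle and 100 µmol/L benzalkonium chloride controls, sDSS an adapted area-under-curve metric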
Quantity name: selective drug sensitivity score

Please review the entries below; each comes with its answer.
{"Molecule": "CNC(=O)c1cc(Oc2ccc(NC(=O)Nc3ccc(Cl)c(C(F)(F)F)c3)cc2)ccn1 [Sorafenib] (top concentration 1000 nM)", "selective drug sensitivity score": 0}
{"Molecule": "CC1(C)NC(=O)N(c2ccc([N+](=O)[O-])c(C(F)(F)F)c2)C1=O [Nilutamide] (top concentration 10000 nM)", "selective drug sensitivity score": -0.48}
{"Molecule": "C[C@@H](Oc1ccc2[nH]nc(/C=C/c3cnn(CCO)c3)c2c1)c1c(Cl)cncc1Cl (top concentration 1000 nM)", "selective drug sensitivity score": -0.94}
{"Molecule": "O=C(Nc1cccc(Nc2ncc(Br)c(NCCc3cnc[nH]3)n2)c1)N1CCCC1 [BX-912] (top concentration 10000 nM)", "selective drug sensitivity score": 9.36}
{"Molecule": "C=CCc1cccc(/C=N/NC(=O)CN2CCN(Cc3ccccc3)CC2)c1O [PAC-1] (top concentration 10000 nM)", "selective drug sensitivity score": 8.28}
{"Molecule": "CC[C@H](Nc1ncnc2[nH]cnc12)c1nc2cccc(F)c2c(=O)n1-c1ccccc1 [Idelalisib] (top concentration 10000 nM)", "selective drug sensitivity score": -2.16}
{"Molecule": "Cc1ccc(F)c(NC(=O)Nc2ccc(-c3cccc4[nH]nc(N)c34)cc2)c1 [Linifanib] (top concentration 1000 nM)", "selective drug sensitivity score": -1.12}
{"Molecule": "C=CC(=O)N1CCC[C@@H](n2nc(-c3ccc(Oc4ccccc4)cc3)c3c(N)ncnc32)C1 [Ibrutinib] (top concentration 1000 nM)", "selective drug sensitivity score": 2.6}
{"Molecule": "CN(C)CCOc1ccc(/C(=C(/CCCl)c2ccccc2)c2ccccc2)cc1 [Toremifene] (top concentration 10000 nM)", "selective drug sensitivity score": 2.48}
{"Molecule": "CS(=O)(=O)c1ccc(C(=O)Nc2ccc(Cl)c(-c3ccccn3)c2)c(Cl)c1 [Vismodegib] (top concentration 10000 nM)", "selective drug sensitivity score": -1.14}

Need selective drug sensitivity score for each of these molecules.
1. COc1ccc(S(=O)(=O)Nc2cccnc2Nc2ccc(O)cc2)cc1 [ABT-751] (top concentration 10000 nM)
2. CNc1nc(-c2ccc3c(N)n[nH]c3c2)cc(N2C[C@@H](C(=O)NC3CCCCC3)CC[C@H]2C)n1 (top concentration 10000 nM)

[11.9, -0.14]

Need selective drug sensitivity score for each of these molecules.
1. O[C@H]1CC[C@H](Nc2ncc3nc(Nc4c(F)cc(F)cc4F)n([C@H]4CCOC4)c3n2)CC1 [Tanzisertib] (top concentration 10000 nM)
2. COc1cc(Br)c(Nc2nc(-c3c(C)nc4ncccn34)cs2)c(Br)c1 [PTC-209] (top concentration 10000 nM)

1: 0; 2: -0.88
